STUDY TARGET: T1, human SLC34A2 (human, UniProt O95436 1-690)
T1 construct: whole, on cells; also called human solute carrier 34 A2; NaPi2b
T1 sequence (looked up): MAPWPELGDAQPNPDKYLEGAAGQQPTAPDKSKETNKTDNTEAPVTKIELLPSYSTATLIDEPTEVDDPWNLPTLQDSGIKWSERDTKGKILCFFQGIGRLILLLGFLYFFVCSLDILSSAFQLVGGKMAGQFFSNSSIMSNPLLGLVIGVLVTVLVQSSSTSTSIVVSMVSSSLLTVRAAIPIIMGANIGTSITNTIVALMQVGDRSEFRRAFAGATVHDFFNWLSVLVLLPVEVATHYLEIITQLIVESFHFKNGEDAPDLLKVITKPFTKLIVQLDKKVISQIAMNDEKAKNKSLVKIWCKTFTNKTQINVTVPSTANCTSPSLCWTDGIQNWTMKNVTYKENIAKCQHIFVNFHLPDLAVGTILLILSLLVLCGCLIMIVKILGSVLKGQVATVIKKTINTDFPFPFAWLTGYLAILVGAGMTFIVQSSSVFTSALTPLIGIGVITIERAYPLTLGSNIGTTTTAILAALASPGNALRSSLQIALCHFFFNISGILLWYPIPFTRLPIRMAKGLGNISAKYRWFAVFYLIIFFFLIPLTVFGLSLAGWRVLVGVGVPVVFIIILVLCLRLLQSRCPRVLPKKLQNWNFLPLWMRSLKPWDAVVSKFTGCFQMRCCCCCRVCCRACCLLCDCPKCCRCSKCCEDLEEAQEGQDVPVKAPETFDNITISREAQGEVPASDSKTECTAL
METHOD DESCRIPTION: FACS, OVCAR3 cells
REPORTED ENDPOINT: EC50 (nM)
Numbers only here, please. The scale is nM.

BINDER: 30H9B8F9.p1.z6 hIgG1 (antibody, V domains shown, humanized hIgG1) VH: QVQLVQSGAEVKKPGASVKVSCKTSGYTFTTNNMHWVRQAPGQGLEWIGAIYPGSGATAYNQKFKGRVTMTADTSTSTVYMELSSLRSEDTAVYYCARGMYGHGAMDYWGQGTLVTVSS VL: DIQLTQSPSFLSASVGDRVTITCKASQDVGTAVAWYQQKPGKSPKLLIYWATTRHSGVPDRFSGSGSGTEFTFTISSLQPEDFATYFCQQYSSNPLTFGQGTKLEIK
ENDPOINT RESULT: 1.1

-- ask Which EC50 is reported for this binder? 30H9B8F9.p1.z5 hIgG1 (antibody, V domains shown, humanized hIgG1) VH: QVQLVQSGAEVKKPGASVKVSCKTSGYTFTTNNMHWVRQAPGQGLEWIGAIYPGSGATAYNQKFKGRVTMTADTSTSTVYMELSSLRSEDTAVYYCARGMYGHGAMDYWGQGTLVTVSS VL: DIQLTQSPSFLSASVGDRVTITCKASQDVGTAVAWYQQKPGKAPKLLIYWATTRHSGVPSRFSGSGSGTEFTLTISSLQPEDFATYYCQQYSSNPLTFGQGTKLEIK
-- reply 0.94

-- ask Which EC50 is reported for this binder? 62G10E4G8 VH_P3/VL hIgG1 (antibody, V domains shown, PTM-derisked chimeric, hIgG1; that P3 is the NA version follows from the humanized .p3 chains; also called 62G10E4G8.p3 hIgG1) VH: QVQLQQSGAEVVKPGASVKMSCKASGYTFPSYITHWVKQTPGQGLEWIGAIYPGNADTSYIQKFKGKATLTADKSSSTAYMQLSSLTSEDSAVYYCARGTYGTSAWFTYWGQGTLVTVSA VL: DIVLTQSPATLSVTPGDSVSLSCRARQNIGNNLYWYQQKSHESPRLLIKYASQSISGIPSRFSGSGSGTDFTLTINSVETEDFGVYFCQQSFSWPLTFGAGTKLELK
-- reply 6.98

-- ask Which EC50 is reported for this binder? xi63A11D5B4 hIgG1 (antibody, V domains shown, chimeric, hIgG1) VH: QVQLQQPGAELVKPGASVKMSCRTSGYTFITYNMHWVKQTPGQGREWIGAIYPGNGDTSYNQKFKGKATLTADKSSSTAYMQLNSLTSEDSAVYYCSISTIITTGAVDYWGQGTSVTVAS VL: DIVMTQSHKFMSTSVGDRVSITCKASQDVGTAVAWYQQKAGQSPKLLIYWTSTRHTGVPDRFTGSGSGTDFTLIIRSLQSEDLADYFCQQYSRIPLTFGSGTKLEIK
-- reply 10.5

-- ask Which EC50 is reported for this binder? 30H9B8F9.p1.z9 hIgG1 (antibody, V domains shown, humanized hIgG1) VH: QVQLVQSGAEVVKPGASVKVSCKTSGYTFTTNNMHWVRQAPGQGLEWIGAIYPGSGATAYNQKFKGRVTLTADKSTSTAYMELSSLRSEATAVYYCARGMYGHGAMDYWGQGTLVTVSS VL: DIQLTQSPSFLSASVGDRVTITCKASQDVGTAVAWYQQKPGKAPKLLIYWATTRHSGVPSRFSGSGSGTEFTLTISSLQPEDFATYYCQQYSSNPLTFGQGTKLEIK
-- reply 1.08
